Measured Stability (T1/2 (h)), listed per entry for reference.
- Test target: HLA-B08:01 (human)
- Protocol summary: pMHC-I dissociation half-life, 125I-b2m
- Experimental: Briefly, synthetic genes encoding biotinylated MHC-I heavy and light chains are expressed in E. coli and purified from inclusion bodies using standard methods. The light chain (β2m) is radio-labeled with iodine (¹²⁵I), and combined with the purified MHC-I heavy chain and peptide of interest at 18° C. to initiate pMHC-I complex formation. […] Stability is defined as the length of time in hours it takes for half of the complexes to dissociate, as measured by scintillation counts
Your answer should be a plain number; it is taken to be in h.

Request: Output measured Stability (T1/2 (h)) for this item: LSLMPAHWSI (JAK1(-1))
Response: 0

Request: Return Stability (T1/2 (h)) for the following binder: FELLSTPPL (MYC, P57S)
Response: 0

Request: Read the entry SQIMSLWGL (NAB:STAT6 (variant 1 of Chmielecki et al.)) and write its reported Stability (T1/2 (h)).
Response: 0

Request: Look up Stability (T1/2 (h)) of YVMAYVMAG (HER2, G776insYVMA) and report it.
Response: 1.2

Request: Identify measured Stability (T1/2 (h)) associated with FQNGKMALSA (FRG1B, L52S)
Response: 0

Request: Respond only with Stability (T1/2 (h)) recorded for FLQEQYHEA (GATA3 YHEA)
Response: 0

***
Request: Identify the reported Stability (T1/2 (h)) for the following entry. YLGNHMNIA (KIT, V654A)
Response: 0

Request: Please list Stability (T1/2 (h)) recorded for the binder SLMPAHWSI (JAK1(-1))
Response: 0

Request: Specify measured Stability (T1/2 (h)) for YMFLKAESKI (GATA3 CSNH) .
Response: 0.4

Request: Item FLLALWECSL (MSH3(-1)) : provide Stability (T1/2 (h))
Response: 0

Request: Query Stability (T1/2 (h)) for SLGNHLCPL (MLL2, CRLS)
Response: 0.5

Request: Return value of Stability (T1/2 (h)) for input YVMAYVMAGV (HER2, G776insYVMA) , no commentary.
Response: 0
